# assay system: Androgen receptor (Rattus norvegicus)
# Sequence (P15207 whole entry S389L, the tested form may be a part): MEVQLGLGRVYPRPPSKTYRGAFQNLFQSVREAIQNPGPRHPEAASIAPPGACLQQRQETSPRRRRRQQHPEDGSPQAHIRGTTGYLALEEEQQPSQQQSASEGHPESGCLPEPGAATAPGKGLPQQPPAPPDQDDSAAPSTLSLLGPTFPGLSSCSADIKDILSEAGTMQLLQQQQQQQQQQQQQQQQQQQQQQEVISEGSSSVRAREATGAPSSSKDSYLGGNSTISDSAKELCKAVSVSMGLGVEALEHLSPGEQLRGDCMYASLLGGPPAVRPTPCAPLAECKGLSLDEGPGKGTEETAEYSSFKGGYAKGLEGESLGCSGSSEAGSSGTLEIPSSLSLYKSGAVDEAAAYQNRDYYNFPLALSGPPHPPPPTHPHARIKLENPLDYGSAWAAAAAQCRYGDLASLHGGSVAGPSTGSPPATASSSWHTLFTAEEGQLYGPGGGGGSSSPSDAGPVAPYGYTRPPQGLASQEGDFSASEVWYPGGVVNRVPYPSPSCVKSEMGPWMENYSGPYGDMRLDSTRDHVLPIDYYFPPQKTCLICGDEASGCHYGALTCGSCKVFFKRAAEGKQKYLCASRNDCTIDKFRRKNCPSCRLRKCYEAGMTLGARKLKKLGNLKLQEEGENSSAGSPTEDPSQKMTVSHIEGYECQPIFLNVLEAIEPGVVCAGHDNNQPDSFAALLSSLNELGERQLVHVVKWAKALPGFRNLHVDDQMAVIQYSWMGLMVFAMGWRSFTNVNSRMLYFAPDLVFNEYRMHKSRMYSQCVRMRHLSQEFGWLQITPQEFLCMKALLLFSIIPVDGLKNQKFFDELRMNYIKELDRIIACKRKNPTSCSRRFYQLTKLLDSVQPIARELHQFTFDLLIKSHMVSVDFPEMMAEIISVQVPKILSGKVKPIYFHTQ
# procedure text: Antagonist activity at GAL4-DBD fused rat androgen receptor expressed in UAS-bla 293 cells assessed as reduction in R1881-induced activation incubated for 16 hrs followed by fluorescence substrate addition and measured after 2 hrs by beta lactamase reporter gene assay
Below is a list of entries, each paired with its recorded IC50 value.

>  <compound>
CC(O)(COc1ccccc1C(F)(F)F)C(=O)Nc1ccc(S(F)(F)(F)(F)F)cc1 (racemic)

>  <result unit>
nM

>  <IC50>
1810

$$$$
>  <compound>
CC(O)(COc1cccc(S(F)(F)(F)(F)F)c1)C(=O)Nc1ccc([N+](=O)[O-])c(C(F)(F)F)c1 (racemic)

>  <result unit>
nM

>  <IC50>
540

$$$$
>  <compound>
CC(O)(COc1ccc(C#N)cc1)C(=O)Nc1ccc(C#N)c(C(F)(F)F)c1 (racemic)

>  <result unit>
nM

>  <IC50>
36

$$$$
